The values you see were collected from patent US20210371530A1.

target.or.test.system: T1, polyhistidine-tagged human PD-1 (hPD1-His, 98AFK) (human, UniProt Q15116 25-167, limits assumed)
T1 construct: Lot 98AFK; also called human PD1-His; Human PD-1-His; not shown: polyhistidine tag
T1 sequence (Q15116 25-167 limits assumed): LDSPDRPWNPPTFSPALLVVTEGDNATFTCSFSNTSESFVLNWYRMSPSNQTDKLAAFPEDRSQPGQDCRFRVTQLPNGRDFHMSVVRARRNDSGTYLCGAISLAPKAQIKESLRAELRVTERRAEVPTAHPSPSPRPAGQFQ
assay.procedure: SPR capture format; reference Mouse 08A
Parameter KD (REF) / KD: see the listing below.
Give the value in ratio but do not write ratio after it.

Query block: Param item = Mouse 08A (antibody, mouse IgG1, kappa, V domains shown, Mouse IgG1/kappa; also called 09AFF; parental mouse 08A antibody) VH: QVQLQQPGAELVKPGASVKLSCKASGYTFTSYYLYWMKQRPGQGLEWIGGVNPSNGGTNFSEKFKSKATLTVDKSSSTAYMQLSSLTSEDSAVYYCTRRDSNYDGGFDYWGQGTTLTVSS VL: DIVLTQSPTSLAVSLGQRATISCRASKSVSTSGFSYLHWYQQKPGQPPKLLIFLASNLESGVPARFSGSGSGTDFTLNIHPVEEEDAATYYCQHSWELPLTFGAGTKLELKR ; retrieve measured KD (REF) / KD.
Result block: 1

From here, focus on the item given below.
Query block: Param item = Humanized 08A IgG4 G56A (antibody, V domains shown, IgG4 S228P / kappa; also called 89AVZ; 08A/HuPD1A-11 G56A IgG4 S228P / Kappa) VH: EVQLVQSGAEVKKPGASVKVSCKASGYTFTSYYLYWVRQAPGQGLEWIGGVNPSNAGTNFSEKFKSRVTLTVDTSISTAYMELSRLRSDDTAVYYCTRRDSNYDGGFDYWGQGTTVTVSS VL: DIVMTQTPLSLSVTPGQPASISCRASKSVSTSGFSYLHWYLQKPGQPPQLLIFLASNLESGVPDRFSGSGSGTDFTLKISRVEAEDVGVYYCQHSWELPLTFGQGTKLEIKR ; retrieve measured KD (REF) / KD.
Result block: 2.4
